# testedSystem: Nischarin (Rattus norvegicus, UniProt Q4G017)
# Sequence (Q4G017 whole entry): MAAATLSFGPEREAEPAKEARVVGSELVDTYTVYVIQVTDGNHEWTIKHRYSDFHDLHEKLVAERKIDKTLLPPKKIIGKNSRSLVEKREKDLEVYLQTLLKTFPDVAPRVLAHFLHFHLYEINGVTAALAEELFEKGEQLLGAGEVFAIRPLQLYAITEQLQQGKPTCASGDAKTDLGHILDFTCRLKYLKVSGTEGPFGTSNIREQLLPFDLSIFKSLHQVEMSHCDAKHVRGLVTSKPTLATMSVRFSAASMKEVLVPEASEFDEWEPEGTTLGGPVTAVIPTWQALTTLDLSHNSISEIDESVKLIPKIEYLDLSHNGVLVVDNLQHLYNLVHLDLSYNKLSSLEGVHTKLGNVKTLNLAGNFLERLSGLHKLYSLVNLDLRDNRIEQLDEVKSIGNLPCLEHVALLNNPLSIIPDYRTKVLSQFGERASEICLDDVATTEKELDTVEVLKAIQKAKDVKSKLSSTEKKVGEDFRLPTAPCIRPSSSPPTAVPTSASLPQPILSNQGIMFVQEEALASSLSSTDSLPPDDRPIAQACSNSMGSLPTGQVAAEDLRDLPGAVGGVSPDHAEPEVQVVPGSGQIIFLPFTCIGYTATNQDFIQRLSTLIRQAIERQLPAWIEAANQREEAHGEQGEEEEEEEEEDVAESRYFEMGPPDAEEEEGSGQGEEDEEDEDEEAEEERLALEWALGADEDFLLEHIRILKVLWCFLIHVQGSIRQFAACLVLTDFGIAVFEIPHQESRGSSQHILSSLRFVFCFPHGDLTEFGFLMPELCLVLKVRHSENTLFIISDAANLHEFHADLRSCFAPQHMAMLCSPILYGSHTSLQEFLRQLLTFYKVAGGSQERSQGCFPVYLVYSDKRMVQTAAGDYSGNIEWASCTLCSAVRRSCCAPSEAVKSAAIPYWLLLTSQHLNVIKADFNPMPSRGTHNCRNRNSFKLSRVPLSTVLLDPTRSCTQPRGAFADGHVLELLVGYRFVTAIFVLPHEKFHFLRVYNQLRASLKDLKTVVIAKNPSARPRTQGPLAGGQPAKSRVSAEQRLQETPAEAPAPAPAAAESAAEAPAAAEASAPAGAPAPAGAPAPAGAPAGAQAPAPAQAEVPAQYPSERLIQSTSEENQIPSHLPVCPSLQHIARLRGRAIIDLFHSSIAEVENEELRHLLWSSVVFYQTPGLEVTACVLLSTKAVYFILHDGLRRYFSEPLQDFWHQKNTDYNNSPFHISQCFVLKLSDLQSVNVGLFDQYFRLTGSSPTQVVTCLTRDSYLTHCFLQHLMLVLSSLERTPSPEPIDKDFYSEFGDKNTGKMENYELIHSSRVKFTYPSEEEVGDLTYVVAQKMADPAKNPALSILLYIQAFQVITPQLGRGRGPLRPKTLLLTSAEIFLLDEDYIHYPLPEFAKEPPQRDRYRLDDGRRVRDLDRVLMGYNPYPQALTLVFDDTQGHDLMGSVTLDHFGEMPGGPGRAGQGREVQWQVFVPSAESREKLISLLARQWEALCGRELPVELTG
# procedureText: Displacement of [125I] PIC from I1 imidazoline receptor in rat PC12 cells after 45 mins by gamma counting
# Type: cell-based, PC-12
# details: read-out: Ki
pKi: −log10 of the molar value.
Would you mind labelling by pKi? At or over 8 is 1 (yes), under is 0 (no).

Before answering, review these 5 worked examples.
CC1CC/C(=N/c2cccc3c2CCC3)N1.Cl (configuration not stated)    0 (no)
Cc1c(Cl)cccc1/N=C1\CCC(C)N1.Cl (configuration not stated)    0 (no)
C1COC(NC(C2CC2)C2CC2)=N1 [RILMENIDINE]    0 (no)
CC1CCC(Nc2ccc(Cl)c3c2CCC3)=N1 (configuration not stated)    1 (yes)
Cc1cccc(/N=C2\CCC(C)N2)c1C.Cl (configuration not stated)    0 (no)

From here, focus on the item given below.
hey, is pKi for this one >= 8? CC1CCC(Nc2ccc(I)cc2Cl)=N1 (configuration not stated)
1 (yes)

Entry source: ChEMBL document CHEMBL3407341
